READOUT: melting point

Examples from the recorded data:
C/C(=N\Nc1ccnc2cc(Cl)ccc12)C(C)(C)C :: 228 to 232 °C
C/C(CCc1ccccc1)=N\Nc1ccnc2cc(Cl)ccc12 :: 161 to 166 °C
CCc1ccc(/C(C)=N/Nc2ccnc3cc(Cl)ccc23)cc1 :: 300 to 304 °C

Entry under review: C/C(=N\Nc1ccnc2cc(Cl)ccc12)c1ccc(C)cc1 . Reported melting point?
310 °C (dec.)

Entry under review: C/C(=N\Nc1ccnc2cc(Cl)ccc12)c1ccc(Cl)c(Cl)c1 . Reported melting point?
294 to 298 °C

----------
Measured pEC50 values are reported for all entries that follow.
tested on: S. mansoni adult worms; experiment: In vitro antischistosomal assay on adult worms; assay type: cell-based, Schistosoma mansoni; settings: Schistosoma mansoni; female adult worms; based on mortality; after 72 h; 95% confidence interval in square brackets; read-out: S. mansoni EC50 Female
Please keep in mind that pEC50 is minus log10 of the molar concentration; only the number is needed.

Examples from the recorded data:
O=C(C1CCCCC1)N1CC(=O)N2CCc3ccccc3C2C1 (stereo not drawn) [PZQ, praziquantel, reference compound] :: 6.00
Cc1ccc(/C=N/Nc2ccnc3cc(Cl)ccc23)cc1 [GPQF-8Q10] :: 4.81

Entry under review: Clc1ccc2c(N/N=C/c3cccs3)ccnc2c1 [GPQF-8Q8] . Reported pEC50?
4.55

----------
READOUT: melting point

Examples from the recorded data:
Clc1ccc2c(N/N=C/c3ccccc3)ccnc2c1 :: 220 to 224 °C
Clc1ccc2c(N/N=C/c3ccc(Cl)c(Cl)c3)ccnc2c1 :: 320 °C (dec.)
Fc1ccc(/C=N/Nc2ccnc3cc(Cl)ccc23)cc1 :: 236 to 241 °C
CC/C(C)=N/Nc1ccnc2cc(Cl)ccc12 :: 71 to 74 °C
CCC/C(C)=N/Nc1ccnc2cc(Cl)ccc12 :: 250 °C (dec.)
C/C(=N\Nc1ccnc2cc(Cl)ccc12)c1ccccc1 :: 302 to 306 °C

Now look at this entry.
Entry under review: C/C(=N\Nc1ccnc2cc(Cl)ccc12)c1ccc(Cl)cc1 . Reported melting point?
290 to 292 °C
